This collection of values is drawn from the Human Domainome abundance scans (Beltran et al. 2025).

B1: Proto-oncogene vav, residues 782 to 842; numbered along this chain, P15498 (parent)
chain: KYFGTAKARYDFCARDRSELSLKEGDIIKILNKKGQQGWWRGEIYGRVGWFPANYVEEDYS

- Variants of: B1
- test.description: abundance fitness (aPCA) (normalised: wild type 0, dead -1); higher = more abundant; growth selection in yeast, the domain comes from the species named
- run.conditions: Homo sapiens
Assign Satisfied to entries whose abundance fitness meets or exceeds -0.2; assign Not satisfied to the rest.

Before answering, review these 4 worked examples.
KYFGTAKARYDFCARDRSELGLKEGDIIKILNKKGQQGWWRGEIYGRVGWFPANYVEEDYS [S21G] = Not satisfied
KYFGTDKARYDFCARDRSELSLKEGDIIKILNKKGQQGWWRGEIYGRVGWFPANYVEEDYS [A6D] = Not satisfied
KYPGTAKARYDFCARDRSELSLKEGDIIKILNKKGQQGWWRGEIYGRVGWFPANYVEEDYS [F3P] = Not satisfied
KYFGHAKARYDFCARDRSELSLKEGDIIKILNKKGQQGWWRGEIYGRVGWFPANYVEEDYS [T5H] = Satisfied

## Input I'd appreciate it if you could say whether KYFGTAKARYDFCARDRSELSLKEGDIIKILNKKGQQGLWRGEIYGRVGWFPANYVEEDYS [W39L] has abundance fitness at least equal to -0.2.
## Output Not satisfied

## Input KYFGTAKARYDFCARDRSELSLKEGDIIKILNKKGQIGWWRGEIYGRVGWFPANYVEEDYS [Q37I] , same question.
## Output Not satisfied
